- test target: HA of H5N1 A/turkey/Turkey/05 virus (Influenza A virus H5N1 …)
- measurement notes: cell-based or functional assay
Examples of binders with documented IC50, in vitro virus neutralization on MDCK cells follow.
measured attribute: IC50, in vitro virus neutralization on MDCK cells

binder: AT10-003 (antibody, V domains shown) VH: QVHLVQSGAEVRKPGASVKVSCKVSGYTLNELSIHWLRQAPGRGLEWMGSFDPEDGETIYAQKFQGRVTMTGDTSTDTAYLELTSLRSEDTALYYCARGWGAVTSPFDFWGQGTLVTVSS VL: DIVMTQSPLSLPVTPGEPASISCRSSQSLLHSNGHIYFDWYLQKPGQSPQLLIYLVSKRASGVPDRFSGSGSGTDFTLKISRVEAEDVGVYYCMQALETPFTFGPGTKVHIKR
assay result: > 15 µg/mL

binder: AT10-001 (antibody, V domains shown) VH: EVQLLESGGGLVQPGGSLRLSCAASGFSFSTYAMSWVRQAPGKGLEWVSGISGSGESTYYADSVKGRFTVSRDNSKNTLYLQMNSLRAEDTAVYYCAKQGDHIAWLLRGINFDYWGQGVLVTVSS VL: EIVLTQSPGTLSLSPGERATLSCRASQSVSSSYLAWYQQKPGQAPRLLIYGASTRATGIPDRFSGRGSGTDFTLTISSLEPEDFAVYYCQNYGSPFLFTFGPGTKVDIKR
assay result: > 15 µg/mL

binder: AT10-005 (antibody, V domains shown) VH: QVQLVQSGAEVKKPGSSVKVSCKASGGAFSNYAISWVRQAPGQGLEWMGGIIPIFGTTNYAQKFQGRVTITADKFTTIAYMELRSLRSEDTAVYYCARHGGVYYYGSASSGWFDPWGQGTLVTVSS VL: EIVLTQSPGTLSLSPGERATLSCRASQSVSSSYLAWYQQKPGQAPRLLIFGASTRATGIPDRFSGSGSGTDFTLTISRLEPEDFAVFYCQQYGSLPLTFGGGTKVEIKG
assay result: 1.3 µg/mL

binder: AT10-002 (antibody, V domains shown) VH: QLQLQESGPRLVKPSETLSLTCSVSGVSISSSNYYWGWIRQPPGKGLEWIGTIYHSGSTYYNPSLKSRLIISVDTSKNQFYLQLTSLTAADSAVYYCATGGGFGWSQTYFGYWGQGTLVTASS VL: QSALTQPASVSGSPGQSITISCTGTSSDVGAYNYVSWYQHHPGKAPKLMIYDVTYRPSGVSTRFSGSKSGNTASLTISGLQAEDEADYYCSSQSRSSTLVIFGGGTKLTVLG
assay result: > 15 µg/mL
